# testSystem: Gamma-secretase
# assayExplanation: Inhibition of gamma-secretase in human SHSY5Y cells expressing human recombinant APP assessed as decrease in Abeta42 level after 24 hrs by DELFIA
# Type: cell-based
# conditionParameters: sh-sy5y
measuredEndpoint: pIC50
# output: bare number, no unit

Solved cases below.
>>> endpointvalue("CC(C)[C@H](O)C(=O)N[C@@H](C)C(=O)N[C@@H]1C(=O)N(C)CCc2ccccc21 [SEMAGACESTAT]")
6.9
>>> endpointvalue("CC(C)CC[C@H](c1ccc(C(F)(F)F)nc1)N1CC[C@@H](CC(=O)[O-])C[C@H]1c1ccc(C(F)(F)F)cc1.[Na+]")
6
>>> endpointvalue("CCCC[C@H](c1ccc(C(F)(F)F)nc1)N1CC[C@@H](CC(=O)[O-])C[C@H]1c1ccc(C(F)(F)F)cc1.[Na+]")
6

Moving on to the next molecule.
Exercise: Read the entry "CC(C)[C@H](c1ccc(C(F)(F)F)nc1)N1CC[C@@H](CC(=O)[O-])C[C@H]1c1ccc(C(F)(F)F)cc1.[Na+]" and write its reported pIC50.
Key: 6

---

# testSystem: Gamma-secretase
# assayExplanation: Inhibition of gamma-secretase in human SHSY5Y cells expressing human recombinant APP assessed as amyloid beta42 formation by ELISA
# Type: cell-based
# conditionParameters: sh-sy5y; in the assay text read “amyloid beta40 formation” for “amyloid beta42 formation”
In this section we review reported pIC50 values for a set of compounds.
# output: bare number, no unit

Solved cases below.
>>> endpointvalue("O=C([O-])C[C@@H]1CCN([C@H](Cc2ccccc2)c2ccc(C(F)(F)F)nc2)[C@H](c2ccc(C(F)(F)F)cc2)C1.[Na+]")
5
>>> endpointvalue("Cc1cccc([C@@H](CCC(C)C)N2CC[C@@H](CC(=O)[O-])C[C@H]2c2ccc(C(F)(F)F)cc2)n1.[Na+]")
4.8
>>> endpointvalue("CC(C)CC[C@H](c1cnc(C(F)(F)F)nc1)N1CC[C@@H](CC(=O)[O-])C[C@H]1c1ccc(C(F)(F)F)cc1.[Na+]")
4.7
>>> endpointvalue("CCCCC[C@H](c1ccc(C(F)(F)F)nc1)N1CC[C@@H](CC(=O)[O-])C[C@H]1c1ccc(C(F)(F)F)cc1.[Na+]")
5.1
>>> endpointvalue("O=C([O-])C[C@@H]1CCN([C@H](CC2CCC2)c2ccc(C(F)(F)F)nc2)[C@H](c2ccc(C(F)(F)F)cc2)C1.[Na+]")
5.5
>>> endpointvalue("O=C([O-])C[C@@H]1CCN([C@@H](c2ccc(C(F)(F)F)nc2)C2CCCCC2)[C@H](c2ccc(C(F)(F)F)cc2)C1.[Na+]")
4.6
>>> endpointvalue("COCCC[C@H](c1ccc(C(F)(F)F)nc1)N1CC[C@@H](CC(=O)[O-])C[C@H]1c1ccc(C(F)(F)F)cc1.[Na+]")
4.5
>>> endpointvalue("O=C([O-])C[C@@H]1CCN([C@@H](c2ccc(C(F)(F)F)nc2)C2CC2)[C@H](c2ccc(C(F)(F)F)cc2)C1.[Na+]")
4.3

Moving on to the next compound.
Exercise: Read the entry "CC(C)[C@H](O)C(=O)N[C@@H](C)C(=O)N[C@@H]1C(=O)N(C)CCc2ccccc21" and write its reported pIC50.
Key: 7.4

---

# assayExplanation: Volume of distribution at steady state in mouse at 3 mg/kg, iv and 10 mg/kg, po
# Type: ADME, organism-based
# conditionParameters: in vivo, read-out: Vdss
measuredEndpoint: Vd
Note to self: number, then unit, no commentary.

Exercise: Read the entry "CC(C)CC[C@H](c1ccc(C(F)(F)F)nc1)N1CC[C@@H](CC(=O)[O-])C[C@H]1c1ccc(C(F)(F)F)cc1.[Na+]" and write its reported Vd.
Key: 1.4 L/kg

---

# testSystem: Gamma-secretase
# assayExplanation: Inhibition of gamma-secretase in human SHSY5Y cells expressing human recombinant APP assessed as amyloid beta40 formation by ELISA
# Format: cell-based
# conditionParameters: sh-sy5y; in the assay text read “amyloid beta42 formation” for “amyloid beta40 formation”
measuredEndpoint: pIC50
# output: bare number, no unit

Solved cases below.
>>> endpointvalue("CC(C)CC[C@H](c1ccc(C(F)(F)F)nn1)N1CC[C@@H](CC(=O)[O-])C[C@H]1c1ccc(C(F)(F)F)cc1.[Na+]")
5.9
>>> endpointvalue("COCCC[C@H](c1ccc(C(F)(F)F)nc1)N1CC[C@@H](CC(=O)[O-])C[C@H]1c1ccc(C(F)(F)F)cc1.[Na+]")
5
>>> endpointvalue("CC(C)CC[C@H](c1cnc(C(F)(F)F)cn1)N1CC[C@@H](CC(=O)[O-])C[C@H]1c1ccc(C(F)(F)F)cc1.[Na+]")
6.4
>>> endpointvalue("CC(C)C[C@H](c1ccc(C(F)(F)F)nc1)N1CC[C@@H](CC(=O)[O-])C[C@H]1c1ccc(C(F)(F)F)cc1.[Na+]")
6.2
>>> endpointvalue("CC(C)CC[C@H](c1cnc(C(F)(F)F)nc1)N1CC[C@@H](CC(=O)[O-])C[C@H]1c1ccc(C(F)(F)F)cc1.[Na+]")
6.4

Exercise: Report the value of pIC50 obtained on Gamma-secretase for "O=C([O-])C[C@@H]1CCN([C@@H](c2ccc(C(F)(F)F)nc2)C2CC2)[C@H](c2ccc(C(F)(F)F)cc2)C1.[Na+]" .
Key: 5.1

Exercise: Report the value of pIC50 obtained on Gamma-secretase for "CC(C)CC[C@H](c1ccc(C(F)(F)F)nc1)N1CC[C@@H](CC(=O)[O-])C[C@H]1c1ccc(C(F)(F)F)cc1.[Na+]" .
Key: 6.5

---

# testSystem: Gamma-secretase (Homo sapiens) (UniProt Q96BI3+Q9NZ42+Q8WW43+P49768+Q92542+P49810)
# assayExplanation: Inhibition of gamma-secretase in human SHSY5Y cells expressing human recombinant APP assessed as amyloid beta40 formation at 20 uM by ELISA
# conditionParameters: SH-SY5Y
Threshold rule: inhibition greater than or equal to 20% is 1.0; below that, 0.0.

Please review the entries below; each comes with its answer.
>>> assignedlabel("O=C([O-])C[C@@H]1CCN([C@H](CCc2ccccc2)c2ccc(C(F)(F)F)nc2)[C@H](c2ccc(C(F)(F)F)cc2)C1.[Na+]")
1.0
>>> assignedlabel("CC(C)[C@H](c1ccc(C(F)(F)F)nc1)N1CC[C@@H](CC(=O)[O-])C[C@H]1c1ccc(C(F)(F)F)cc1.[Na+]")
1.0
>>> assignedlabel("CC(C)CC[C@H](c1ncc(C(F)(F)F)cn1)N1CC[C@@H](CC(=O)[O-])C[C@H]1c1ccc(C(F)(F)F)cc1.[Na+]")
0.0

Exercise: Please check the record "O=C([O-])C[C@@H]1CCN([C@H](c2ccc(C(F)(F)F)cc2)c2ccc(C(F)(F)F)nc2)[C@H](c2ccc(C(F)(F)F)cc2)C1.[Na+]" and state if its inhibition is at or above 20%.
Key: 1.0

---

# testSystem: Gamma-secretase
# assayExplanation: Inhibition of gamma-secretase in human SHSY5Y cells expressing human recombinant APP assessed as increase in Abeta38 level after 24 hrs by DELFIA
# Type: cell-based
# conditionParameters: sh-sy5y
measuredEndpoint: pEC50
# output: bare number, no unit

Solved cases below.
>>> endpointvalue("CC(C)CC[C@H](c1ccc(C(F)(F)F)nc1)N1CC[C@@H](CC(=O)[O-])C[C@H]1c1ccc(C(F)(F)F)cc1.[Na+]")
6.3
>>> endpointvalue("CCC[C@@H](C(=O)O)c1cc(OCc2ccccc2)cc(-c2ccc(C(F)(F)F)cc2)c1")
5.9
>>> endpointvalue("CCCCCC[C@H](c1ccc(C(F)(F)F)nc1)N1CC[C@@H](CC(=O)[O-])C[C@H]1c1ccc(C(F)(F)F)cc1.[Na+]")
6.3
>>> endpointvalue("CCCC[C@H](c1ccc(C(F)(F)F)nc1)N1CC[C@@H](CC(=O)[O-])C[C@H]1c1ccc(C(F)(F)F)cc1.[Na+]")
5.5

Exercise: Read the entry "CC(C)[C@H](c1ccc(C(F)(F)F)nc1)N1CC[C@@H](CC(=O)[O-])C[C@H]1c1ccc(C(F)(F)F)cc1.[Na+]" and write its reported pEC50.
Key: 5

Exercise: Read the entry "O=C(O)Cc1ccc(-c2ccc(C(F)(F)F)cc2)c(-c2ccc(C(F)(F)F)cc2)c1" and write its reported pEC50.
Key: 5.1

Exercise: Read the entry "O=C([O-])C[C@@H]1CCN([C@@H](c2ccc(C(F)(F)F)nc2)C2CC2)[C@H](c2ccc(C(F)(F)F)cc2)C1.[Na+]" and write its reported pEC50.
Key: 5

Exercise: Read the entry "CC(C)[C@H](O)C(=O)N[C@@H](C)C(=O)N[C@@H]1C(=O)N(C)CCc2ccccc21" and write its reported pEC50.
Key: 6.9

---

# assayExplanation: Drug level in mouse blood at 5 mg/kg, po after 2 hrs
# Assay type: ADME, organism-based
# Set-up: dose 5 mg/kg, route oral
# conditionParameters: read-out: Drug uptake
measuredEndpoint: concentration at 2 h (µM)
Answer format: numeric, µM implied, no suffix.

Exercise: Read the entry "CC(C)CC[C@H](c1ccc(C(F)(F)F)nc1)N1CC[C@@H](CC(=O)[O-])C[C@H]1c1ccc(C(F)(F)F)cc1.[Na+]" and write its reported concentration at 2 h.
Key: 5.6
